# reported kcat; entries follow
- Tested on: moLRP (marine origin Lactonase Related Protein), putative AHL lactonase of the PTE-Like-Lactonase (PLL) family from marine metagenomes, recombinant with 6×His …
- experiment.summary: AHL lactonase activity of purified moLRP (hydrolysis of N-acyl homoserine lactones, Michaelis-Menten kinetics, pH indicator cresol purple)
- Type: biochemical, marine metagenome (Tara Oceans); MAG of phylum Chloroflexi
- setup.conditions: hydrolysis of AHLs by moLRP; Table 1; FIG. 3 (C4-HSL): E0=0.4 μM, 27° C.; error = standard deviation, at least three independent measurements
endpoint.name: kcat

{"columns": ["compound", "endpoint.name", "result"],
 "data": [
  ["CCCCCCC(=O)N[C@H]1CCOC1=O", "kcat", "0.230 ± 0.02 s⁻¹"],
  ["CCCCCC(=O)CC(=O)NC1CCOC1=O (racemic)", "kcat", "0.519 ± 0.02 s⁻¹"],
  ["CCCC(=O)N[C@H]1CCOC1=O", "kcat", "1.85 ± 0.11 s⁻¹"],
  ["CCCC(=O)CC(=O)N[C@H]1CCOC1=O", "kcat", "1.30 ± 0.10 s⁻¹"]
]}

// provenance: patent US20240309342A1
